Exercise: state measured melting point for each of the compounds provided.

CCCC(=O)c1cc2c(=O)cc(C(=O)O)[nH]c2cc1C | 255 to 258 °C
C[C@](O)(COc1ccc(Cl)cc1)C(=O)Nc1ccc(C#N)c(C(F)(F)F)c1 | 146 to 148 °C
Cc1ccc(S(=O)(=O)N(C)c2cc(C(C)(C)C)c(O)c(C(C)(C)C)c2)cc1 | 130 to 142 °C
O=C(NCCCN1NC=NN1)c1ccccc1[N+](=O)[O-] | 148 to 150 °C
CN(CCN1CCOCC1)c1noc2cc(O)ccc12 | 91 to 92 °C

Please give melting point, item by item, for the list that follows.
1. CC(=O)Oc1cc2cc[nH]c2cc1OC(C)=O
2. C1=CCC(OC2=CC=CC2)=C1
3. CCc1noc(-c2ncn(-c3cccnc3)c2COC)n1
4. CSc1cc2c(cc1C(F)(F)F)N(C(=O)Nc1cccc(C(=O)N(C)CCN(C)C)c1)CC2
5. CC(=N)Nc1ccc(NC(C)=O)cc1

1. 130 to 131 °C
2. 74 °C
3. 70 to 72 °C
4. 140 to 141 °C
5. 131 to 134 °C

# melting point (compound: O=C(Nc1ccccn1)Nc1cccc2c1C1CC(O)CCN1C2=O (stereo unspecified) ) is 220 °C

---

Give melting point for every item shown.

Would you mind giving melting point for every compound in the list below?
1. O=C1C(=Cc2cccnc2)N2CCC1CC2
2. COC(=O)c1ccc(CCc2ccc(OC)cc2)nc1
3. N#Cc1ccc[nH]c1=S
4. COc1cc2c(cc1OCc1ccccc1)[C@H](CO)OC2=O
5. Cc1ccc2nc(-n3nc4c(c3O)-c3ccccc3CC4)sc2c1
6. Cc1noc(NS(=O)(=O)c2ccccc2-c2ccc(-c3ncco3)cc2CN(C)C(=O)c2cc3ccccc3[nH]2)c1C
7. Cc1c(F)c(F)c(N)c2c(=O)c(C(=O)O)cn(-c3nc(N)c(F)cc3F)c12

1: 113 °C; 2: 82 °C; 3: 243 to 246 °C; 4: 126 to 128 °C; 5: 218 to 219 °C; 6: 135 to 145 °C; 7: 250 °C

---

Give melting point for every item shown.

COC(=O)N1CC[C@H](Nc2nc3cncnc3n2Cc2ccc(F)cc2)[C@H](C)C1 (relative stereo) | 152 °C

// for each compound in input: emit melting point
1. CN(C(=O)CCN)c1nnc(-c2cccnc2)s1
2. Cc1cncn1-c1ccc(O)cc1
3. O=C1CCC(N2Cc3c(OCc4ccc(CN5CCN(S(=O)(=O)C6CC6)CC5)cc4)cccc3C2=O)C(=O)N1 (stereo unspecified)
4. O=C1CCC(N2CCOc3cc(Br)ccc32)CC1
5. COCCCn1nnnc1-c1cc(-c2ccccc2C(F)(F)F)c(O)cc1O

110 to 112 °C
256 °C
145 to 147 °C
102 °C
207 to 210 °C

Value sought for every listed compound: melting point.
1. COc1cc(C=O)c(F)cc1Cl
2. S=C=Nc1ccc(Nc2ccncc2)cc1
3. CCCN1CCCC1CNC(=O)c1c(OC)ccc(Br)c1OC (single isomer, unassigned; (-))
4. COc1cc2c(cc1OCc1ccccc1)CCCC(C(=O)O)=C2
5. Fc1cc2c(Nc3ccc(OCc4ccccn4)c(Cl)c3)ncnc2cn1
6. O=C(CN1C(=O)C2(COc3cc4c(cc32)OCCO4)c2ccccc21)Nc1ccccc1F (stereo unspecified)
7. Cc1ccc(S(=O)(=O)NC2CCCCC2NC(=O)OC(C)(C)C)cc1 (stereo unspecified)

1. 120 to 122 °C
2. 195 to 196 °C
3. 103 to 104 °C
4. 163 to 165 °C
5. 216 to 219 °C
6. 117 to 119 °C
7. 137 to 139 °C

Can you give me melting point for all of these, one by one?
1. COc1ccc(C=O)cc1-c1cccs1
2. O=C1NCCc2[nH]c3c(Br)cccc3c21
3. CC(C)(C)CC(=O)c1ccc(O)c(Cl)c1Cl

["137 to 138 °C", "268 to 270 °C", "156 to 158 °C"]

Provide each entry's melting point from the list below.
1. CC(OC1CCCN(Cc2ncn[nH]2)C1c1ccccc1)c1cc(C(F)(F)F)cc(C(F)(F)F)c1 (stereo unspecified)
2. CCOC(=O)C(=CNc1ccc2c(c1)CCC2)C(=O)OCC
3. CCOC(=O)Cc1ccc(-n2c(-c3cccnc3N)nc3ccc(-c4cccnc4)nc32)cc1
4. Cc1ccc(C)c(Oc2noc(=O)n2S(=O)(=O)N(C)C)c1

182 to 183 °C
25 to 30 °C
155 to 157 °C
101 to 103 °C

compound Cc1ncsc1CCOc1ccc(NC(=O)c2cc(F)cc(N3CCOCC3)c2)c2ccccc12 , melting point observed: 186 to 187 °C
